Target: human TRPA1 (hTRPA1) (Homo sapiens)
Construct: wild-type hTRPA1 in HEK cells
Sequence (O75762 whole entry): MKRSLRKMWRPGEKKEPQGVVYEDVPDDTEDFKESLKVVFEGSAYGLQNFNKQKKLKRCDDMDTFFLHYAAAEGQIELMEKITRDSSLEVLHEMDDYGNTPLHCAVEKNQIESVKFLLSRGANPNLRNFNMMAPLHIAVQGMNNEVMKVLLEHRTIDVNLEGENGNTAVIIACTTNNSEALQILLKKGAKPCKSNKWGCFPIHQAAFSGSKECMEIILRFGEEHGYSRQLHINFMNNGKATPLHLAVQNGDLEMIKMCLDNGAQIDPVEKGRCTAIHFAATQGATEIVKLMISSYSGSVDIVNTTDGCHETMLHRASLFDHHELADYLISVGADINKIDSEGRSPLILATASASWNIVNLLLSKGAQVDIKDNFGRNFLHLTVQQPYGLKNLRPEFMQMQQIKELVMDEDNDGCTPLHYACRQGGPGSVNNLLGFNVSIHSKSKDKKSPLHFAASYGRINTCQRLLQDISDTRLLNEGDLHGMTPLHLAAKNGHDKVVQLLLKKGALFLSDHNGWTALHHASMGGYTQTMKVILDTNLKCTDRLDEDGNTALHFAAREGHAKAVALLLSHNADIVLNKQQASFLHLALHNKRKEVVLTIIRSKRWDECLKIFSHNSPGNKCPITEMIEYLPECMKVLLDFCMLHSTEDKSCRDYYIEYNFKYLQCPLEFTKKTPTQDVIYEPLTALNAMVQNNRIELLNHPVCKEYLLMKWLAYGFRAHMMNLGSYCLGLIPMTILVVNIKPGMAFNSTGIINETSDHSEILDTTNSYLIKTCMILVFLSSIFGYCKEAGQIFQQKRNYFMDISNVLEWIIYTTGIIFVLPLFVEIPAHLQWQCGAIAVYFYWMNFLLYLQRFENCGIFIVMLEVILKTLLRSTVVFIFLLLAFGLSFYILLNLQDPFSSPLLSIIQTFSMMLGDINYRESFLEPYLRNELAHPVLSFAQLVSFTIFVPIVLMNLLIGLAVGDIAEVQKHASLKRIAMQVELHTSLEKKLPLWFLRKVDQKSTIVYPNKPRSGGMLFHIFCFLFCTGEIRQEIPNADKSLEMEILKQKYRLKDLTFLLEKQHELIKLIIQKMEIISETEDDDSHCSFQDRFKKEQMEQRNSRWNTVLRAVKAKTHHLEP
Test: Fura-2 Ca2+ imaging and whole-cell patch clamp in HEK-hTRPA1 cells; C621S and F669M mutants reduce response
Assay type: cell-based
pEC50: −log10 of the molar value.
endpoint: pEC50

Incoming: Supply measured pEC50 of COCCCN(C(=O)CCl)c1nc(-c2ccc(OC)cc2)cs1 [JT010] in your reply.
Outgoing: ~8.00
